# assay info: Acute toxicity, oral, LD50 (Litchfield and Wilcoxon)
# condition description: mouse, in vivo, fasted male mice, confidence limits p=95% in brackets
property name: LD50

Here's what some known entries look like.
Task: Consider the compound shown here: CC1Cc2cc(C(O)C(C)NCCCCc3ccc(Cl)cc3)ccc2S1 (stereo not drawn) [No 68] What is its recorded LD50?
Result: < 500 mg/kg

Task: Form field: reported LD50 of CCCCCCCCNC(C)C(OC(=O)CCC)c1ccc2c(c1)CCCS2 (stereo not drawn) [No 134]
Result: > 4000 mg/kg

Further cases:
Task: Tell me the measured LD50 of CCC(NCCCCc1ccccc1)C(O)c1ccc2c(c1)CCS2 (stereo not drawn) [No 115] , please.
Result: ~2500 mg/kg

Task: Need LD50, item CC(NCCC(c1ccccc1)c1ccccc1)C(O)c1ccc2c(c1)CCCS2 (stereo not drawn) [No 16]
Result: > 4000 mg/kg

Task: Tell me the measured LD50 of CC(NCCCCc1ccccc1)C(O)c1ccc2c(c1)CCCCS2 (stereo not drawn) [No 12] , please.
Result: 5200 mg/kg

Task: Param item = CC(NCCc1ccccc1)C(O)c1ccc2c(c1)CCS2 (stereo not drawn) [No 6] ; retrieve measured LD50.
Result: < 500 mg/kg

Task: For the compound shown here, CC(NCCCCc1ccccc1)C(OC(=O)C1CCC1)c1ccc2c(c1)CCS2 (stereo not drawn) [No 132] , give the reported LD50.
Result: 1900 mg/kg

Task: Item CC(NCCCSc1ccccc1)C(O)c1ccc2c(c1)CCCS2 (stereo not drawn) [No 37] has what recorded LD50?
Result: > 4000 mg/kg

Task: Fill in the blank: the reported LD50 of CCCCCCCC(=O)OC(c1ccc2c(c1)CCS2)C(C)NCCCCc1ccccc1 (stereo not drawn) [No 133] is ____.
Result: 2600 mg/kg

Task: Could you share which LD50 value was measured for CC(NCCCN1CCCC1=O)C(O)c1ccc2c(c1)CCCS2 (stereo not drawn) [No 77] ?
Result: 235 mg/kg

Task: For the compound shown here, CC(NCCOc1ccccc1)C(O)c1ccc2c(c1)SCCO2 (stereo not drawn) [No 123] , give the reported LD50.
Result: > 4000 mg/kg

Task: Which measured LD50 value corresponds to CC(CCCc1ccccc1)NC(C)C(O)c1ccc2c(c1)CCS2 (stereo not drawn) [No 63] ?
Result: 1850 mg/kg

Task: Given COCCOCCCNC(C)C(O)c1ccc2c(c1)CCS2 (stereo not drawn) [No 129] , state its recorded LD50.
Result: 250 mg/kg

Task: For CCCCSCCCNC(C)C(O)c1ccc2c(c1)CCCS2 (stereo not drawn) [No 80] , what is its reported LD50?
Result: 5000 mg/kg
